# System: murine macrophage J774A.1 cell line
# methodDescription: Cytotoxicity assay, alamarBlue
# Type: cell-based
# conditionsUsed: 24 h, 37 °C, mean ± SD; read-out: Murine Macrophage J774.A1 CC50
measurementType: CC50

itemSmiles | systemName | measurementType | val
CN[C@@H]1C[C@H]2O[C@@](C)([C@@H]1OC)n1c3ccccc3c3c4c(c5c6ccccc6n2c5c31)C(=O)NC4=O | murine macrophage J774A.1 cell line | CC50 | 5.2 µM

* * *

# Test system: Naegleria fowleri ATCC 30808 trophozoites
# methodDescription: In vitro amoebicidal activity, alamarBlue colorimetric assay, trophozoites
# conditionsUsed: CC50 J774A.1 / IC50 N. fowleri ATCC 30808
Quick reference: SI (CC50/IC50) of the listed items.
measurementType: SI (CC50/IC50)

compound | measurementType | inequalitySymbol | val
CO[C@@H]1C(=O)C[C@H]2O[C@]1(C)n1c3ccccc3c3c4c(c5c6ccccc6n2c5c31)C(=O)NC4 [4′D4′OSTS (3), 4′-demethylamino-4′-oxostaurosporine] | SI (CC50/IC50) | > | 1.9
COC1=C(C)O[C@@H]2C[C@@]1(OC)n1c3ccccc3c3c4c(c5c6ccccc6n2c5c31)C(=O)NC4 [SCZ B (4), streptocarbazole B] | SI (CC50/IC50) | > | 1.7
C[C@@H]1[C@H](O)[C@@H](C)/C=C/C=C/C=C/C=C/C=C/C=C/C=C/[C@H](O[C@@H]2O[C@H](C)[C@@H](O)[C@H](N)[C@@H]2O)C[C@@H]2O[C@](O)(C[C@@H](O)C[C@@H](O)[C@H](O)CC[C@@H](O)C[C@@H](O)CC(=O)O[C@H]1C)C[C@H](O)[C@H]2C(=O)O [Amphotericin B] | SI (CC50/IC50) | ≥ | 1666.7
COC(=O)C1(O)CC2OC1(C)n1c3ccccc3c3c4c(c5c6ccccc6n2c5c31)C(=O)NC4 (stereo not drawn) [K252a (6), K252a] | SI (CC50/IC50) | = | 3.2
CCCCCCCCCCCCCCCCOP(=O)([O-])OCC[N+](C)(C)C [Miltefosine, miltefosine] | SI (CC50/IC50) | = | 3.3
CN[C@@H]1C[C@H]2O[C@@](C)([C@@H]1OC)n1c3ccccc3c3c4c(c5c6ccccc6n2c5c31)C(=O)NC4=O [7OSTS (2), 7-oxostaurosporine] | SI (CC50/IC50) | = | 4.1
